Experiment: A549 NSCLC cell proliferation inhibitors – ATP luminescence, human non-small cell lung line, primary screen (AID 371);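 further: compound exposure lasted 72 h before the ATP read; 0% = untreated cell signal and 100% = no luminescence left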
Conditions: at 10 µM, active compounds read high
Screen size: about 3,300 compounds; about 280 (8.5%) were called active. Only a selection was taken, and actives are over-represented in it overall.
MEASUREMENT NAME: growth inhibition (%)

{"COMPOUND": "Cn1c(OCc2ccc3c(c2)OCO3)nc2c1c(=O)n(Cc1cccc(Cl)c1)c(=O)n2C", "VALUE UNIT": "%", "EXPERIMENTAL VALUE": -0.73}
{"COMPOUND": "O=C(NCc1cccnc1)c1ccc(=O)oc1", "VALUE UNIT": "%", "EXPERIMENTAL VALUE": -2.22}
{"COMPOUND": "Cn1c(=O)c2c(nc(NCc3ccco3)n2Cc2ccc(Cl)cc2Cl)n(C)c1=O", "VALUE UNIT": "%", "EXPERIMENTAL VALUE": 0.48}
{"COMPOUND": "COC(=O)CSc1nc(N)nc(C)c1Br", "VALUE UNIT": "%", "EXPERIMENTAL VALUE": 0.51}
{"COMPOUND": "CC(C)COC(=O)CCNc1n[nH]c(=O)[nH]c1=O", "VALUE UNIT": "%", "EXPERIMENTAL VALUE": 2.08}
{"COMPOUND": "O=C(O)CCSc1ccc2ccccc2n1", "VALUE UNIT": "%", "EXPERIMENTAL VALUE": 1.45}
{"COMPOUND": "CCOC(=O)c1c(CN2CCCCC2)oc2ccc(OC)cc12", "VALUE UNIT": "%", "EXPERIMENTAL VALUE": 5.15}
{"COMPOUND": "Cc1ccc(-c2nn3c(-c4cccc(Cl)c4)nnc3s2)cc1", "VALUE UNIT": "%", "EXPERIMENTAL VALUE": 45}
{"COMPOUND": "O=C1c2ccccc2C(=O)C1c1ccc2ccccc2n1", "VALUE UNIT": "%", "EXPERIMENTAL VALUE": 74.9}
{"COMPOUND": "O=C1C2ON(c3ccccc3)C(c3ccncc3)C2C(=O)N1c1ccc(Br)cc1 (stereo not drawn)", "VALUE UNIT": "%", "EXPERIMENTAL VALUE": -9.58}
{"COMPOUND": "O=C(CNC1C(=O)Nc2ccccc21)Sc1ccccc1 (stereo not drawn)", "VALUE UNIT": "%", "EXPERIMENTAL VALUE": -5.29}
{"COMPOUND": "CC(Sc1ccc2ccccc2n1)C(=O)O (stereo not drawn)", "VALUE UNIT": "%", "EXPERIMENTAL VALUE": -2.6}
{"COMPOUND": "Cn1c(NCc2ccco2)nc2c1c(=O)n(Cc1ccc(Cl)c(Cl)c1)c(=O)n2C", "VALUE UNIT": "%", "EXPERIMENTAL VALUE": 70}
{"COMPOUND": "CCn1cc(/C=N/O)c(C)n1", "VALUE UNIT": "%", "EXPERIMENTAL VALUE": -8.38}
{"COMPOUND": "Cn1c(=O)c2c(nc(NCc3ccco3)n2Cc2ccccc2Cl)n(C)c1=O", "VALUE UNIT": "%", "EXPERIMENTAL VALUE": 2.6}
{"COMPOUND": "CCOC(=O)c1c(CN2CCN(CCO)CC2)n(C)c2cc(Br)c(OC)cc12", "VALUE UNIT": "%", "EXPERIMENTAL VALUE": 84.4}
{"COMPOUND": "NC(=O)C1CCN(CCC(=O)Nc2ccc(Br)cc2)CC1", "VALUE UNIT": "%", "EXPERIMENTAL VALUE": 7.48}
{"COMPOUND": "CCOC(=O)c1c(C)n(C)c2ccc(OC)c(NC(=O)CN3CCN(Cc4ccccc4)CC3)c12", "VALUE UNIT": "%", "EXPERIMENTAL VALUE": 12.1}
{"COMPOUND": "CC(C)OC(=O)[C@H]1[C@H](c2ccc(Cl)cc2)[C@@](C#N)(C(N)=O)[C@@H]2C=CC(C(N)=O)=CN21", "VALUE UNIT": "%", "EXPERIMENTAL VALUE": 6.9}
{"COMPOUND": "CCOC(=O)c1[nH]c2cc3c(cc2c1NC(=O)CN1CC(C)CC(C)C1)OCO3 (stereo not drawn)", "VALUE UNIT": "%", "EXPERIMENTAL VALUE": 6.05}
{"COMPOUND": "CC1(C)Cc2nc(NCCCO)c(C#N)cc2CO1", "VALUE UNIT": "%", "EXPERIMENTAL VALUE": -0.91}
{"COMPOUND": "Cc1nnc(SCC(=O)N2CCOCC2)c2ccccc12", "VALUE UNIT": "%", "EXPERIMENTAL VALUE": -4.15}
{"COMPOUND": "Cn1c(OCc2ccco2)nc2c1c(=O)n(Cc1ccc(Cl)c(Cl)c1)c(=O)n2C", "VALUE UNIT": "%", "EXPERIMENTAL VALUE": 59}
